- study.target: Human CD3eg linker (human)
- Sequence (chain, as listed by the source limits assumed): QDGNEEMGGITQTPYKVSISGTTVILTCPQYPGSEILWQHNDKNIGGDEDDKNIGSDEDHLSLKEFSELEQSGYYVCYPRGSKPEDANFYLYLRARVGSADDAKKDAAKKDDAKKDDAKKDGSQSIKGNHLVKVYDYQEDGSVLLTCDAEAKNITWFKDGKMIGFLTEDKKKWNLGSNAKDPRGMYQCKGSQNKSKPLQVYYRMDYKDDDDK
- test.protocol: SPR; fold vs parent H183/L072
measured.metric: fold change of affinity (fold)
One number for each entry, in fold.

[
  {
    "binder": "H183/L072 VL A89P (antibody, name in Kabat numbering, V domains shown) VH: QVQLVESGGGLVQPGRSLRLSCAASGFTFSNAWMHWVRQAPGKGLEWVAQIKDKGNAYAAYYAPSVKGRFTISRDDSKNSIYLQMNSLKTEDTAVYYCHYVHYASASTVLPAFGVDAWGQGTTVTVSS VL: DIVMTQSPLSLPVTPGEPASISCQASQELVHMNRNTYLHWYQQKPGQAPRLLIYKVSNRFPGVPDRFSGSGSGTDFTLKISRVEAEDVGVYYCPQGTSVPFTFGQGTKLEIK",
    "fold change of affinity / fold": 0
  }
]

Here's the next entry for you.
binder H183/L072 VL H27dL (antibody, name in Kabat numbering, V domains shown) VH: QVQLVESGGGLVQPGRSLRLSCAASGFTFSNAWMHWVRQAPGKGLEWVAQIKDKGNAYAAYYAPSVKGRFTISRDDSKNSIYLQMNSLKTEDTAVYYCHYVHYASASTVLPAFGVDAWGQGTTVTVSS VL: DIVMTQSPLSLPVTPGEPASISCQASQELVLMNRNTYLHWYQQKPGQAPRLLIYKVSNRFPGVPDRFSGSGSGTDFTLKISRVEAEDVGVYYCAQGTSVPFTFGQGTKLEIK , fold change of affinity observed: 0
